- ASSAY_TEXT: in vivo
- Set-up: species or system male rats
- CONDITION: rat, po
EXPERIMENTAL_ENDPOINT: NOAEL at 336 h (mg/kg/day)
Output spec: scalar in mg/kg/day, unitless text.

Prompt: Fill in the blank: the reported NOAEL at 336 h of NC(=O)Cc1csc(SC2=C(C(=O)O)N3C(=O)[C@@H](NC(=O)Cc4ccccc4)[C@H]3SC2)n1 is ____.
Response: 100
